- Test system: 786-0 renal
- assay details: NCI tumour cell line growth inhibition, 48 h
parameter: TGI (µM)
Numbers only; they are read as µM.

Solved entries (count: 2):
O=c1ssc2ncccc12 = 38.2
CCCN1C(=O)/C(=C/c2cccc(O)c2)SC1=Nc1ccc(OC)cc1 = 16.4

Query: Please give the measured TGI for this compound: C=CS(=O)(=O)c1c2cc(OC)ccc2nc2ccc(OC)cc12
Result: 7.82

###

- Test system: HOP-92 NSCLC
- assay details: NCI tumour cell line growth inhibition, 48 h
parameter: TGI (µM)
Numbers only; they are read as µM.

Solved entries (count: 10):
CCOc1ccc(N=NC2C(=O)N(C(=O)CC(=O)Nc3ccc(C)cc3)N=C2C)cc1 (stereo not given) = 39.9
C=C1C[C@@H](O)[C@@H](Br)C(C)(C)[C@@]12C=CC(O)(CBr)CC2 (stereo not given in full) = 61
CCCc1cc2c(cc1O)CC[C@@H]1[C@@H]2CC[C@]2(C)[C@@H](O)CC[C@@H]12 = 33.6
CCN(CC)CCOc1nc2c3ccc(Cl)cc3nn2c2ccccc12 = 6.41
O=c1cc(-c2ccccc2)[nH]c2ccc(N3CCCCC3)cc12 = 53.6
N/C(=N/N=C/c1cc(Br)cc(Br)c1O)NO = 25.2
CN1CCN(c2ccc(N3Cc4ccccc4OC4=C3C(=O)c3c(O)ccc(O)c3C4=O)cn2)CC1 = 0.499
Clc1ccc(N2CCN(CCCN3CCN(c4cccc(Cl)c4)CC3)CC2)cc1 = 11.4
CC(C)OC(=O)c1ccc(CCc2cc(O)c(Br)cc2O)cc1 = 35.2
Cc1ccccc1C1=C/C(=C(\SS/C(C(=O)c2ccc(OCC(=O)O)c(Cl)c2Cl)=C2\C=C(c3ccccc3C)SS2)C(=O)c2ccc(OCC(=O)O)c(Cl)c2Cl)SS1 = 13.8

Query: Please give the measured TGI for this compound: CC(C)=CCC/C(C)=C\CC/C(C)=C/CO
Result: 22.7

Query: Next record, please: COc1cc(-c2cc(/C=C/C(=O)c3ccc(N)cc3)[nH]n2)cc(OC)c1OC
Result: 27.6

Query: Next record, please: Cc1cc2c(c(C)c1O)C(C)(C)CN2C(=O)C(C)(C)C
Result: 78.5

###

Catalogue of TGI readings, one per entry.
- Tested on: SK-MEL-28 melanoma
- assay details: NCI tumour cell line growth inhibition, 48 h

Query: Under SK-MEL-28 melanoma: TGI value of COS(=O)(=O)OCCC(NC(=O)OCc1ccccc1)C(=O)OCc1ccccc1 (stereo not drawn) ?
Result: > 100 µM

Query: Next record, please: COc1cc(C2C3=C(COC3=O)Oc3cc4c(cc32)OCO4)cc(OC)c1OC (stereo not drawn)
Result: > 31.6 µM

Query: Next record, please: Clc1ccc(Nc2nn3c(CCCCCCCCc4nnc5sc(Nc6ccc(Cl)cc6)nn45)nnc3s2)cc1
Result: > 100 µM

###

- Tested on: UACC-62 melanoma
- assay details: NCI tumour cell line growth inhibition, 48 h
Catalogue of TGI readings, one per entry.

Solved entries (count: 8):
CCCN1C(=O)/C(=C/c2cccc(O)c2)SC1=Nc1ccc(OC)cc1 = 18.1 µM
O=C(CSc1nccc(=O)[nH]1)c1ccccc1 = > 100 µM
Cc1cc(C)c(C#N)c(SCC(=O)c2sc3c(C#N)c(C)cc(C)[n+]3c2[O-])n1 = > 100 µM
Cc1ccc(C(N)=Nc2ccccc2)cc1 = > 100 µM
O=c1cc(-c2ccccc2)[nH]c2ccc(N3CCCCC3)cc12 = > 100 µM
O=C(Nc1nc2ncn(CCNCCn3cnc4nc(NC(=O)c5ccccc5)[nH]c(=O)c43)c2c(=O)[nH]1)c1ccccc1 = > 100 µM
CCN(CC)CCNc1ccc2ncn3c4ccccc4c(=O)c1c23 = 14.6 µM
CC(C)OC(=O)c1ccc(CCc2cc(O)c(Br)cc2O)cc1 = 34.4 µM

Query: Please give the measured TGI for this molecule: CCOC(=O)C1=C(N)CCC1C (centres undefined)
Result: > 100 µM

###

Catalogue of TGI readings, one per entry.
- Tested on: HS 578T breast
- assay details: NCI tumour cell line growth inhibition, 48 h

O=C(O[C@H]1CN[C@H](C#Cc2cc3ncnc(Nc4ccc5c(cnn5Cc5ccccc5)c4)c3s2)C1)N1CCOCC1 = > 17 µM
Cc1ccc(S(=O)(=O)NC2=NCCN2C(=S)SN2CCn3c2nsc3=S)cc1 = > 100 µM
Nc1ccc2nc3n(c(=O)c2c1)CCCCC3 = > 100 µM

Query: Please give the measured TGI for this compound: Cc1ccc(C(N)=Nc2ccccc2)cc1
Result: > 100 µM

###

- Tested on: SF-539 CNS
- assay details: NCI tumour cell line growth inhibition, 48 h
parameter: TGI

Solved entries (count: 3):
CN(C)C(=O)Nc1c([N+](=O)[O-])cc(C(F)(F)F)cc1[N+](=O)[O-] = > 100 µM
O=C(/C=C(\N=P(c1ccccc1)(c1ccccc1)c1ccccc1)C(F)(F)C(F)(F)C(F)(F)C(F)(F)C(F)(F)C(F)(F)C(F)(F)F)c1ccccc1 = > 100 µM
N#Cc1c2nc3ccccc3nc2n2ccccc12 = > 100 µM

Query compound follows.
Query: Under SF-539 CNS: TGI value of O=C(Nc1ccccc1)c1cc(S(=O)(=O)Nc2nc3ncccc3[nH]2)c(SSc2cc(Cl)c(C(=O)Nc3ccccc3)cc2S(=O)(=O)Nc2nc3ncccc3[nH]2)cc1Cl ?
Result: > 100 µM

###

- Tested on: SNB-19 CNS
- assay details: NCI tumour cell line growth inhibition, 48 h
Where a SMILES comes first, the peptide text is derived from it. The star is where a group is joined. Boc = CC(C)(C)OC(=O)*
parameter: TGI

CC(NC(=O)OC(C)(C)C)C(=O)NC(Cc1ccccc1)C(=O)NCC(=O)O (stereo not drawn) (Boc-Ala-Phe-Gly-OH; configuration not given here) = > 100 µM
Clc1ccc(Nc2nn3c(CCCCCCCCc4nnc5sc(Nc6ccc(Cl)cc6)nn45)nnc3s2)cc1 = 80.4 µM
C[C@]12C=CC(=O)C=C1[C@@H](F)C[C@H]1[C@@H]3CC[C@](O)(C(=O)CO)[C@@]3(C)C[C@H](O)[C@@]12F = > 100 µM
O=c1cc(-c2ccccc2)[nH]c2ccc(N3CCCCC3)cc12 = > 100 µM
CC1=NN(c2nc(N)nc(COCc3nc(N)nc(N4N=C(C)CC4(C)C)n3)n2)C(C)(C)C1 = > 100 µM

Query: Please give the measured TGI for this molecule: COc1ccc2nc3c([N+](=O)[O-])ccc4c3c(c2c1)N(CCCN(C)C)C(=S)N4CCCN(C)C
Result: 25.8 µM

Query: Next record, please: Cc1ccc(C(N)=Nc2ccccc2)cc1
Result: > 100 µM

Query: Next record, please: COc1ccc2c(c1)CCC1C2CCC2(C)C3=CC(O)CCC3CC12 (stereo unspecified)
Result: 42.5 µM

Query: Next record, please: CC1(C)COC2(OC1)C1=NS(=O)(=O)CC13CCC2C3(C)C (stereo unspecified)
Result: > 100 µM

Query: Next record, please: CCC1=C(C)c2cc3[n-]c(cc4nc(c(C=O)c5[n-]c(cc1n2)c(C)c5CC)C(C)=C4CC)c(C)c3CC.[Ni+2]
Result: > 100 µM

Query: Next record, please: CC(=O)NC(Cc1cnc[nH]1)C(=O)N1CCCC1C(N)=O (stereo unspecified)
Result: > 100 µM

###

Catalogue of TGI readings, one per entry.
- System: 786-0 renal
- assay details: NCI tumour cell line growth inhibition, 48 h

Solved entries (count: 3):
O=c1n(N=S(=O)(c2ccccc2)c2ccccc2)c(=O)n2n1C1C=CC2CC1 = > 100 µM
O=C1CC[C@@]2(O)[C@H]3Cc4ccc(-c5cccc(O)c5)c5c4[C@@]2(CCN3CC2CC2)[C@H]1O5 = 36.6 µM
NC(=O)c1c2c(n3ccccc13)C(=O)c1ccccc1C2=O = > 100 µM

Query: Please give the measured TGI for this compound: CC[N+](CC)(CC)Cc1cc2ccccc2n1C(=O)OC
Result: > 100 µM

Query: Next record, please: N#CC(NCCc1ccccc1)c1ccccc1 (stereo not drawn)
Result: > 100 µM

Query: Next record, please: COc1ccc2c(c1)CCC1C2CCC2(C)C3=CC(O)CCC3CC12 (stereo not drawn)
Result: 33.3 µM

Query: Next record, please: CC(C)c1cccc(C(C)C)c1NC(=S)N=Nc1cc(C(C)(C)C)c(O)c(C(C)(C)C)c1
Result: 35.7 µM

Query: Next record, please: Cc1ccccc1C1=C/C(=C(\SS/C(C(=O)c2ccc(OCC(=O)O)c(Cl)c2Cl)=C2\C=C(c3ccccc3C)SS2)C(=O)c2ccc(OCC(=O)O)c(Cl)c2Cl)SS1
Result: > 70 µM

Query: Next record, please: CC1CCN(CCC(=O)CC(c2ccccc2)c2c(O)c3ccccc3oc2=O)CC1 (stereo not drawn)
Result: > 100 µM
